assay: Half-life for the disappearance in rat brain homogenate; type: ADME
EXPERIMENTAL READOUT: half-life (h)

• CC(=O)C1CCC2C3CC=C4C=C(OC(=O)C5=CN(C)C=CC5)CCC4(C)C3CCC12C (stereo unspecified) = 1.77
